Provenance of the data: the supplement of paper PMC4862054

normalised response listing for selected compounds.
- Test system: HDQ-P1
- Protocol summary: normalised response (% of control), CellTox Green; higher = less cell death (100 = DMSO, 0 = benzethonium chloride kill control)
- Condition context: incubation time: 72 h
Remember to quote the unit after the number.

Sample answers from the record:
| Compound | Property | Value measured |
| --- | --- | --- |
| N#Cc1ccc(C(c2ccc(C#N)cc2)n2cncn2)cc1 [Letrozole] (10000 nM) | normalised response | 107% |
| O=C(O)CCCCC(CCSCc1ccccc1)SCc1ccccc1 (centres undefined) [CPI-613] (10000 nM) | normalised response | 104% |
| C=CCc1cccc(/C=N/NC(=O)CN2CCN(Cc3ccccc3)CC2)c1O [PAC-1] (100 nM) | normalised response | 100% |

// next item, normalised response requested
Exercise: What value of normalised response has been reported for the following compound? CC[C@H](Nc1ncnc2[nH]cnc12)c1nc2cccc(F)c2c(=O)n1-c1ccccc1 [GS-1101] (100 nM)
Solution: 105%

* * *

- System: SK-BR-3
- Protocol summary: normalised viability (% of control), CellTiter-Blue; higher = more viable cells (about 100 = DMSO control)
- Condition context: 1000 nM; incubation time: 72 h
Property: normalised viability (%)
Please state the figure in %; there is no need to write the unit.

| Query smiles | Endpoint unit | normalised viability |
| --- | --- | --- |
| COc1cc2nccc(Oc3ccc(NC(=O)Nc4cc(C)on4)c(Cl)c3)c2cc1OC | % | 99.1 |
| O=C(Cc1ccc(-c2ccc(OCCN3CCOCC3)cc2)cn1)NCc1ccccc1 | % | 19.9 |

Exercise: What value of normalised viability has been reported for the following compound? CCCS(=O)(=O)Nc1ccc(F)c(C(=O)c2c[nH]c3ncc(-c4ccc(Cl)cc4)cc23)c1F
Solution: 93.8

Exercise: What value of normalised viability has been reported for the following compound? CCCCC(=O)OCC(=O)[C@]1(O)Cc2c(O)c3c(c(O)c2[C@@H](O[C@H]2C[C@H](NC(=O)C(F)(F)F)[C@H](O)[C@H](C)O2)C1)C(=O)c1c(OC)cccc1C3=O
Solution: 25.9

* * *

normalised response listing for selected compounds.
- Tested on: CAL-51
- Protocol summary: normalised response (% of control), CellTiter-Glo; higher = more viable cells (100 = DMSO, 0 = benzethonium chloride kill control)
- Condition context: incubation time: 72 h
Please state the figure in %; there is no need to write the unit.

Exercise: What value of normalised response has been reported for the following compound? Nc1ncn([C@H]2C[C@H](O)[C@@H](CO)O2)c(=O)n1 [Decitabine] (10 nM)
Solution: 124

Exercise: What value of normalised response has been reported for the following compound? O=C(O)C(=O)O.[NH-][C@@H]1CCCC[C@H]1[NH-].[Pt+2] [Oxaliplatin] (1 nM)
Solution: 110

* * *

- System: CAL-148
- Protocol summary: normalised response (% of control), CellTiter-Glo; higher = more viable cells (100 = DMSO, 0 = benzethonium chloride kill control)
- Condition context: incubation time: 72 h
Property: normalised response (%)
Please state the figure in %; there is no need to write the unit.

Sample answers from the record:
| Compound | Value measured |
| --- | --- |
| Nc1ncn([C@H]2C[C@H](O)[C@@H](CO)O2)c(=O)n1 [Decitabine] (100 nM) | 93.1 |
| CC[C@@H]1C(=O)N(C)c2cnc(Nc3ccc(C(=O)NC4CCN(C)CC4)cc3OC)nc2N1C1CCCC1 [BI 2536] (10 nM) | 55.6 |
| O=C(/C=C/c1cccnc1)NCCCCC1CCN(C(=O)c2ccccc2)CC1 [Daporinad] (10 nM) | 115 |
| CCN(CC)CCCC(C)Nc1c2ccc(Cl)cc2nc2ccc(OC)cc12 (stereo unspecified) [Mepacrine] (500 nM) | 86.1 |
| O=C(O)C(=O)O.[NH-][C@@H]1CCCC[C@H]1[NH-].[Pt+2] [Oxaliplatin] (100 nM) | 85.6 |

// next item, normalised response requested
Exercise: What value of normalised response has been reported for the following compound? C=CC(=O)N1CCC[C@@H](n2nc(-c3ccc(Oc4ccccc4)cc3)c3c(N)ncnc32)C1 [Ibrutinib] (10 nM)
Solution: 109
